# credit: PubChem BioAssay AID1259407

# Tested on: CCRIS mutagenicity, Ames/micronucleus/aberration tests
# Assay name: CCRIS mutagenicity studies
# Reported conditions: Test System: AMES SALMONELLA TYPHIMURIUM; Strain/Indicator: TA100; Metabolic Activation: NONE; Method: STANDARD PLATE
The source made the active and inactive calls. The rule behind the calls is not given here.
Outcome codes: y (active), n (inactive)

{"columns": ["Molecule", "Group label"],
 "data": [
  ["N#Cc1ccc(CCl)cc1", "n"],
  ["NCCCC[C@H](N[C@@H](CCc1ccccc1)C(=O)O)C(=O)N1CCC[C@H]1C(=O)O", "n"],
  ["CCN(CC[N+](C)(C)C)c1ccc(N=Nc2ccc([N+](=O)[O-])cc2Cl)cc1", "y"],
  ["c1scc2c1-c1cscc1C1OC21 (configuration not stated)", "y"],
  ["O=[N+]([O-])c1ccc2c(c1)Oc1ccccc1O2", "y"],
  ["COc1cc(CNC(=O)C(C)Br)ccc1O (configuration not stated)", "y"],
  ["O=C(CCl)NCO", "n"],
  ["COc1cccc2c1C(=O)c1c(O)c3c(c(O)c1C2=O)C[C@@](O)(C(=O)CO)C[C@@H]3O[C@H]1C[C@H](N)[C@@H](O)[C@H](C)O1", "n"],
  ["Cc1ccc(CO)cc1", "n"],
  ["C[Si](C)(C)Cl", "n"],
  ["CCOP(=S)(OCC)SCSCC", "n"],
  ["CC1(C)[C@@H](O[C@H]2O[C@H](C(=O)O)[C@@H](O)[C@H](O)[C@H]2O[C@@H]2O[C@H](C(=O)O)[C@@H](O)[C@H](O)[C@H]2O)CC[C@]2(C)[C@H]3C(=O)C=C4[C@@H]5C[C@@](C)(C(=O)O)CC[C@]5(C)CC[C@@]4(C)[C@]3(C)CC[C@@H]12", "n"],
  ["O=[N+]([O-])c1ccc2ccc3c4c(cc5ccc1c2c53)C=CCC4", "y"],
  ["Nc1ccc(S(=O)(=O)Nc2cnc3c(Cl)cccc3n2)cc1", "n"],
  ["COc1ccc([N+](=O)[O-])c2c(NCCCN(C)C)c3ccccc3nc12", "n"],
  ["CC(=O)n1ccnc1", "n"],
  ["COc1ccc(CNC(=O)C(C)Br)cc1 (configuration not stated)", "y"],
  ["O=[N+]([O-])c1c2c(c3ccc4cccc5ccc1c3c45)CCCC2", "n"],
  ["COc1cccc2c1C(=O)c1c(O)c3c(c(O)c1C2=O)C[C@@](O)(C(C)=NNC(=O)c1ccccc1)C[C@@H]3O[C@H]1C[C@H](N)[C@H](O)[C@H](C)O1", "n"],
  ["O=C1NC(=O)C(Cl)(Cl)C1=C(Cl)Cl", "y"],
  ["N#Cc1cccc(/C=C/c2ccc([N+](=O)[O-])cc2)c1", "y"],
  ["c1cc2c3c(c1)C1NC1c1cccc(c1-3)C1NC21 (configuration not stated)", "y"]
]}

###

# System: CCRIS mutagenicity, Ames/micronucleus/aberration tests
# Assay name: CCRIS mutagenicity studies
# Reported conditions: Test System: AMES SALMONELLA TYPHIMURIUM; Strain/Indicator: TA100; Metabolic Activation: NONE; Method: STANDARD PLATE
Activity calls are given as the source filed them. How the calls were made is not given here.
Outcome codes: active, inactive

{"columns": ["Compound", "Group label"],
 "data": [
  ["[Cl][Cd][Cl]", "inactive"],
  ["CN(CCO)C(=O)Nc1ccc(Cl)c(Cl)c1", "inactive"],
  ["CC(=O)/C=C/c1ccccc1", "inactive"],
  ["CC1(C)CCC[C@]2(C)[C@H]3CC=C(C=O)[C@@H](C=O)[C@]3(C)CC[C@@H]12", "inactive"],
  ["CC(=O)c1ccc(N=O)cc1", "active"],
  ["Cc1ccc2c(c1)C(=O)c1ccccc1C2=O", "inactive"],
  ["CCc1ccco1", "inactive"],
  ["CC(C)(C)NC[C@H](O)COc1ccccc1C1CCCC1", "inactive"],
  ["C=Cc1ccc([N+](=O)[O-])cc1", "active"],
  ["COC(=O)Nc1nc2ccc(O)cc2[nH]1", "inactive"],
  ["CN1CCN=C(c2ccccc2)c2cc(Cl)ccc21", "inactive"],
  ["COc1ccc(CNCC(O)COc2ccc3[nH]c(=O)ccc3c2)cc1OC (centres undefined)", "inactive"],
  ["O=C(ON(OCc1ccccc1)C(=O)c1ccccc1)c1ccc(Cl)cc1", "active"],
  ["CC(C)CON=O", "active"]
]}
